Molecular target: Left-right determination factor 2 (Homo sapiens) (UniProt O00292)
Sequence (O00292 whole entry, looked up): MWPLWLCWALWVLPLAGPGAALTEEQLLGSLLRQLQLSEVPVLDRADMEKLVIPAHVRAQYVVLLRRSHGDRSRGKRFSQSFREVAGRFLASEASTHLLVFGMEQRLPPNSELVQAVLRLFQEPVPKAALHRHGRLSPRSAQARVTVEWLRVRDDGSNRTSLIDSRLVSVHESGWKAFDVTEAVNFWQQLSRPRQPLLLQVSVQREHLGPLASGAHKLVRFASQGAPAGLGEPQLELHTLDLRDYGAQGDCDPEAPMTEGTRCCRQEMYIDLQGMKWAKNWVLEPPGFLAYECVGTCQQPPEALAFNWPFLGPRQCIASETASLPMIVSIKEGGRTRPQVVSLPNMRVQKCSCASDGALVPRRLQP
Assay: LEFTY2 binders on small-molecule microarrays, primary screen, biochemical, small-molecule microarray, 635 nm fluorescence scan (AID 1110)
Settings: LEFTY2 binding, higher = more signal
assayMetric: composite z-score

compound	composite z-score
COc1ccc(O[C@H]2C=C[C@@H](c3ccccc3)O[C@@H]2COC(=O)CCC(C)=NOC(C)CN2CCCCc3nc(C)c(C)cc32)cc1 (stereo partly drawn)	-0.106
C[C@@H](c1ccccc1)N1C(=O)[C@H]2[C@H]3[C@H](O)[C@H](O)CC(=NNC(=O)OCc4ccccc4)[C@H]3CC[C@H]2C1=O	0.495

Task: # return recorded composite z-score for input O=C1O[C@@H](c2ccccc2)[C@@H](c2ccccc2)N2[C@@H](c3ccc(OCCO)cc3)[C@]3(C(=O)Nc4ccccc43)[C@@H](C(=O)N3CCN(c4ncccn4)CC3)[C@H]12
Result: 0.773
